TARGET DESC: hFFA3 (Homo sapiens, UniProt O14843)
Sequence (O14843 1-346): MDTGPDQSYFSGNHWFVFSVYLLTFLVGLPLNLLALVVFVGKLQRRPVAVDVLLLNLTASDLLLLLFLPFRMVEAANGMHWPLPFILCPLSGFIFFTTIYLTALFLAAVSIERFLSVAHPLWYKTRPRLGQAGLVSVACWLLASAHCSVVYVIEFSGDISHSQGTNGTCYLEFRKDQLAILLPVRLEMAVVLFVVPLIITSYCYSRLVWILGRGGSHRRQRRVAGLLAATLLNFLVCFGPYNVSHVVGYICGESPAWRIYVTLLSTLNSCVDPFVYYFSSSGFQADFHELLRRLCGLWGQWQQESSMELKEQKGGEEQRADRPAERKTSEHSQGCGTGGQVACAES
PROTOCOL NOTES: cell-based
ASSAY CONTEXT: hFFA3; compound alone; mean of ≥3 independent experiments ± standard error
Protocol: The ligands were initially screened in a human FFA3-dependent [^35S]GTPγS binding assay as this assay reflects receptor-mediated activation of Gi/o proteins and is known to generally correlate well with ligand affinity.[30] […] HEK293 Flp-In T-Rex cells stably transfected with FFA3-eYFP receptors were incubated overnight with doxycycline to induce expression, then harvested, and cryopreserved. […] Reactions were measured using a PHERAstar FS plate reader (BMGLabtech, Aylesbury, UK).
RESULT TYPE: cAMP pEC50

Some solved entries appear below for comparison.
Prompt: Given CC1=C(C(=O)Nc2cc(Cl)ccc2Cl)C(CN)C2=C(CCCC2=O)N1 (stereo not drawn) [Compound 52] , state its recorded cAMP pEC50.
Response: nr^d

Prompt: Given CC1=C(C(=O)Nc2cc(Cl)ccc2Cl)C(CC2CCNCC2)C2=C(CCCC2=O)N1 (stereo not drawn) [Compound 53] , state its recorded cAMP pEC50.
Response: nr^d

Prompt: Given CC1=C(C(=O)Nc2cc(Cl)ccc2Cl)C(CC2CCN(C(=O)OC(C)(C)C)CC2)C2=C(CCCC2=O)N1 (stereo not drawn) [Compound 56] , state its recorded cAMP pEC50.
Response: nr^d

Prompt: Given CC1=C(C(=O)Nc2cc(Cl)ccc2Cl)C(CNC(=O)OC(C)(C)C)C2=C(CCCC2=O)N1 (stereo not drawn) [Compound 55] , state its recorded cAMP pEC50.
Response: nr^d

Prompt: Given COC(=O)C1=C(C)NC(C)=C(C(=O)Nc2ccccc2C)C1CC(C)C (stereo not drawn) [Compound 26] , state its recorded cAMP pEC50.
Response: nr^c

Batch lookup, cAMP pEC50 per entry.
1. CC1=C(C(=O)Nc2ccccc2C)C(c2cccc(Br)c2)C2=C(CCCC2=O)N1 (stereo not drawn) [Compound 6]
2. CC1=C(C(=O)Nc2ccccc2C)C(C2CC2)C2=C(CCCC2=O)N1 (stereo not drawn) [Compound 33]
3. CC1=C(C(=O)Nc2ccccc2C)C(/C=C/c2ccccc2)C2=C(CCCC2=O)N1 (stereo not drawn) [Compound 39]
4. CC1=C(C(=O)Nc2cc(Cl)ccc2Cl)C(C2CCCC2)C2=C(CCCC2=O)N1 (stereo not drawn) [Compound 63]

Response:
1: 5.87 ± 0.06; 2: 6.22 ± 0.10; 3: 4.34 ± 0.18; 4: 6.79 ± 0.05
